// data source = paper PMC6757289

- Target or test system: SGK1 (Homo sapiens, UniProt O00141, S422D)
- Sequence (O00141 60-431 S422D limits assumed, species assumed): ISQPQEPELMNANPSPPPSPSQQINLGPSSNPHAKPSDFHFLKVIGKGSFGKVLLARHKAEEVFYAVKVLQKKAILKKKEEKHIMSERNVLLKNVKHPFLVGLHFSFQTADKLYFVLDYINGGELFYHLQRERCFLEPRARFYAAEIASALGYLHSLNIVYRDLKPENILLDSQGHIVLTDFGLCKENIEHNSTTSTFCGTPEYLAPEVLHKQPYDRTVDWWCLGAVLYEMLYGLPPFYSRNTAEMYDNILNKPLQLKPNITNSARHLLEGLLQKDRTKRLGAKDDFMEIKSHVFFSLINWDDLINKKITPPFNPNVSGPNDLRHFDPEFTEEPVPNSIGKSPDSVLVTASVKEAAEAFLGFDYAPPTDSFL
- Procedure text: IC50 determination, biochemical kinase assay
- Condition description: not in the presence of VHL
Measured quantity: IC50

Answered examples (2):
• Cc1ccc(F)c(S(=O)(=O)Nc2ccc(-c3nc(OC[C@H]4CN(CCCCCCOCCCCCCOCC(=O)N[C@H](C(=O)N5C[C@H](O)C[C@H]5C(=O)NCc5ccc(-c6scnc6C)cc5)C(C)(C)C)CCO4)c4cn[nH]c4n3)cc2)c1 = > 10 µM
• Cc1ccc(F)c(S(=O)(=O)Nc2ccc(-c3nc(OC[C@H]4CN(CCOCCOCCOCCOCCOCC(=O)N[C@H](C(=O)N5C[C@H](O)C[C@H]5C(=O)NCc5ccc(-c6scnc6C)cc5)C(C)(C)C)CCO4)c4cn[nH]c4n3)cc2)c1 = > 10 µM

Pending compound:
Notebook entry, SGK1 (Homo sapiens, UniProt O00141, S422D) assay: IC50 of Cc1ccc(F)c(S(=O)(=O)Nc2ccc(-c3nc(OC[C@H]4CN(CCOCCOCC(=O)N[C@H](C(=O)N5C[C@H](O)C[C@H]5C(=O)NCc5ccc(-c6scnc6C)cc5)C(C)(C)C)CCO4)c4cn[nH]c4n3)cc2)c1 = ?
> 10 µM
